Target protein (sequence): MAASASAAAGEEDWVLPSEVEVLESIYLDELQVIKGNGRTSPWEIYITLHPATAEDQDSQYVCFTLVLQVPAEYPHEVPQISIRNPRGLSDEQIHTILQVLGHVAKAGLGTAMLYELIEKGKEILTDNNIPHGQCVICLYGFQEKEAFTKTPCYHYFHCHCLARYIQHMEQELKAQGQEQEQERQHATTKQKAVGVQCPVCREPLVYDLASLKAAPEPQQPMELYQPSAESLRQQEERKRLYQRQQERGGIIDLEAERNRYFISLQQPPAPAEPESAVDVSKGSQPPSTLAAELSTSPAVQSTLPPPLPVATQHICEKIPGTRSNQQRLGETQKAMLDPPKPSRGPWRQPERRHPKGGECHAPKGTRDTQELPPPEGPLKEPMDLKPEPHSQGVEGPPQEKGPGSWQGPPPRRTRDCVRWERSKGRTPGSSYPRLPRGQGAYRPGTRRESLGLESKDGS
Measurement label: pKd
On this scale, pKd is minus log10 of a concentration expressed in M (mol/L).

pKd recorded for this compound, Cc1ccc(S(=O)(=O)/C=C/C#N)cc1 [BAY11-7082] , is 6.02
